test system: NIH/3T3 mouse embryonic fibroblast cell line; experiment: MTT assay, NIH/3T3 cells (healthy); type: cell-based; conditions: NIH3T3, 24 h
I'd be grateful if you could share measured IC50 for these entries.
Report the figure in µg/mL without appending any unit label.

(Q) Value lookup for IC50; key = N#Cc1ccc(Oc2ccc(C=NNc3nc(-c4ccc(F)cc4)cs3)cc2)cc1
(A) 170

(Q) Proceed to N#Cc1ccc(Oc2ccc(C=NNc3nc(-c4ccc(O)cc4)cs3)cc2)cc1
(A) 227

(Q) Proceed to N#Cc1ccc(Oc2ccc(C=NNc3nc(-c4ccccc4)cs3)cc2)cc1
(A) 197

----------
test system: Akt; experiment: In cell ELISA colorimetric Akt activity, A549 cells; format: cell-based, human; details: compounds at IC50 concentrations for 24 h
I'd be grateful if you could share measured Akt Inhibition % A549 Cell Line for these entries.
Report the figure in % without appending any unit label.

(Q) Value lookup for Akt Inhibition % A549 Cell Line; key = N.N.[Cl][Pt][Cl] [Cisplatin, cisplatin, reference compound]
(A) 31.01

(Q) Proceed to N#Cc1ccc(Oc2ccc(C=NNc3nc(-c4ccc(C#N)cc4)cs3)cc2)cc1 [Compound 6]
(A) 45.77

(Q) Proceed to N#Cc1ccc(Oc2ccc(C=NNc3nc(-c4ccc(O)cc4)cs3)cc2)cc1 [Compound 8]
(A) 57.37

(Q) Proceed to N#Cc1ccc(Oc2ccc(C=NNC(N)=S)cc2)cc1 [Compound A]
(A) 68.08

----------
test system: NIH/3T3 mouse embryonic fibroblast cell line; experiment: MTT assay, NIH/3T3 cells (healthy); assay type: cell-based; settings: NIH3T3, 24 h
ASSAY READOUT: IC50

(Q) Value lookup for IC50; key = N#Cc1ccc(Oc2ccc(C=NNc3nc(-c4ccc([N+](=O)[O-])cc4)cs3)cc2)cc1
(A) 71.7 µg/mL

(Q) Proceed to N#Cc1ccc(Oc2ccc(C=NNc3nc(-c4ccc5ccccc5c4)cs3)cc2)cc1
(A) > 500 µg/mL

(Q) Proceed to N#Cc1ccc(Oc2ccc(C=NNc3nc(-c4ccc(C#N)cc4)cs3)cc2)cc1
(A) > 500 µg/mL

(Q) Proceed to N#Cc1ccc(Oc2ccc(C=NNC(N)=S)cc2)cc1
(A) 225 µg/mL

(Q) Proceed to N#Cc1ccc(Oc2ccc(C=NNc3nc(-c4ccc(Cl)cc4)cs3)cc2)cc1
(A) 180 µg/mL

(Q) Proceed to COc1ccc(-c2csc(NN=Cc3ccc(Oc4ccc(C#N)cc4)cc3)n2)cc1
(A) 433 µg/mL

(Q) Proceed to Cc1ccc(-c2csc(NN=Cc3ccc(Oc4ccc(C#N)cc4)cc3)n2)cc1
(A) 185 µg/mL

(Q) Proceed to N#Cc1ccc(Oc2ccc(C=NNc3nc(-c4ccc(Br)cc4)cs3)cc2)cc1
(A) 163 µg/mL
